The compounds listed here are annotated with their EC50.
- System: human FXN
- protocol_description: FXN mRNA expression by qRT-PCR in GM15850 cells after 48 hr compound treatment
- Format: cell-based
- test_settings: Homo sapiens; GM15850 cells, 48 hr incubation, hFXN normalized to hGAPDH; read-out: EC50 WT (nM, 48 hr)

Consider the reported EC50 for these compounds:
smiles_entry=CCCNC(=O)c1nc(NC(=O)CCNC(=O)c2cc(NC(=O)c3nc(NC(=O)CCNC(=O)c4cc(NC(=O)c5nc(NC(=O)CCNC(=O)COCCOCCOCCOCCOCCOCCOCCOc6ccc(NC(=O)C[C@@H]7N=C(c8ccc(Cl)cc8)c8c(sc(C)c8C)-n8c(C)nnc87)cc6)cn5C)cn4C)cn3C)cn2C)cn1C system_tested="human FXN" test_value="< 100 nM"
smiles_entry=CC(=O)N1c2ccc(C3=CCN(C(=O)COCCOCCOCCOCCOCCOCCOCCOCCNC(=O)CCNC(=O)c4nc(NC(=O)CCNC(=O)c5cc(NC(=O)c6nc(NC(=O)CCNC(=O)c7cc(NC(=O)c8nccn8C)cn7C)cn6C)cn5C)cn4C)CC3)cc2N(Cc2ccccc2CO)C[C@@H]1C1CC1 system_tested="human FXN" test_value="100 to 500 nM"

Ask: Output measured EC50 for this item: `Cc1sc2c(c1C)C(c1ccc(Cl)cc1)=N[C@@H](CC(=O)Nc1ccc(OCCOCCOCCOCCOCCOCCOCCOCC(=O)NCCNC(=O)CCNC(=O)c3nc(NC(=O)CCNC(=O)c4cc(NC(=O)c5nc(NC(=O)CCNC(=O)c6cc(NC(=O)c7nccn7C)cn6C)cn5C)cn4C)cn3C)cc1)c1nnc(C)n1-2`
Result: < 100 nM

Ask: Output measured EC50 for this item: `COc1ccc2c(c1)C(c1ccc(Cl)cc1)=N[C@@H](CC(=O)Nc1ccc(OCCOCCOCCOCCOCCOCCC(=O)NCCCN(C)CCCNC(=O)CCNC(=O)c3nc(NC(=O)CCNC(=O)c4cc(NC(=O)c5nc(NC(=O)CCNC(=O)c6cc(NC(=O)c7nccn7C)cn6C)cn5C)cn4C)cn3C)cc1)c1nnc(C)n1-2`
Result: 100 to 500 nM

Ask: Output measured EC50 for this item: `Cc1sc2c(c1C)C(c1ccc(Cl)cc1)=N[C@@H](CC(=O)Nc1ccc(OCCOCCOCCOCCOCCOCCC(=O)NCCCN(C)CCCNC(=O)CCNC(=O)c3nc(NC(=O)CCNC(=O)c4cc(NC(=O)c5nc(NC(=O)CCNC(=O)c6cc(NC(=O)c7nccn7C)cn6C)cn5C)cn4C)cn3C)cc1)c1nnc(C)n1-2`
Result: 100 to 500 nM

Ask: Output measured EC50 for this item: `COc1ccc2c(c1)C(c1ccc(Cl)cc1)=N[C@H](CC(=O)Nc1ccc(OCCOCCOCCOCCOCCOCCOCCOCCOCCNC(=O)CCNC(=O)c3nc(NC(=O)CCNC(=O)c4cc(NC(=O)c5nc(NC(=O)CCNC(=O)c6cc(NC(=O)c7nccn7C)cn6C)cn5C)cn4C)cn3C)cc1)c1nnc(C)n1-2`
Result: 100 to 500 nM

Ask: Output measured EC50 for this item: `Cc1sc2c(c1C)C(c1ccc(Cl)cc1)=N[C@@H](CC(=O)Nc1ccc(OCCOCCOCCOCCOCCOCCOCCOCCOCCNC(=O)CCNC(=O)c3nc(NC(=O)CCNC(=O)c4cc(NC(=O)c5nc(NC(=O)CCNC(=O)c6cc(NC(=O)c7nccn7C)cn6C)cn5C)cn4C)cn3C)cc1)c1nnc(C)n1-2`
Result: < 100 nM

Ask: Output measured EC50 for this item: `COC[C@@H](C)n1c(C2CCN(C(=O)COCCOCCOCCOCCOCCC(=O)NCCCN(C)CCCNC(=O)CCNC(=O)c3nc(NC(=O)CCNC(=O)c4cc(NC(=O)c5nc(NC(=O)CCNC(=O)c6cc(NC(=O)c7nccn7C)cn6C)cn5C)cn4C)cn3C)CC2)nc2cnc3cc(-c4c(C)noc4C)c(OC)cc3c21`
Result: 100 to 500 nM

Ask: Output measured EC50 for this item: `CC(=O)N1c2ccc(C3=CCN(C(=O)COCCOCCOCCOCCOCCOCCOCCNC(=O)CCNC(=O)c4nc(NC(=O)CCNC(=O)c5cc(NC(=O)c6nc(NC(=O)CCNC(=O)c7cc(NC(=O)c8nccn8C)cn7C)cn6C)cn5C)cn4C)CC3)cc2N(Cc2ccccc2CO)C[C@@H]1C1CC1`
Result: 100 to 500 nM

Ask: Output measured EC50 for this item: `Cc1sc2c(c1C)C(c1ccc(Cl)cc1)=N[C@@H](CC(=O)Nc1cccc(OCCOCCOCCOCCOCCOCCC(=O)NCCCN(C)CCCNC(=O)CCNC(=O)c3nc(NC(=O)CCNC(=O)c4cc(NC(=O)c5nc(NC(=O)CCNC(=O)c6cc(NC(=O)c7nccn7C)cn6C)cn5C)cn4C)cn3C)c1)c1nnc(C)n1-2`
Result: < 100 nM

Ask: Output measured EC50 for this item: `CC(=O)N1c2ccc(-c3ccc(C(=O)NCCOCCOCCOCCOCCOCCOCCOCCOCCNC(=O)c4cc(NC(=O)c5nc(NC(=O)CCNC(=O)c6cc(NC(=O)c7nc(NC(=O)CCNC(=O)COCCOCCOCCN8CCN(CC9CCNCC9)CC8)cn7C)cn6C)cn5C)cn4C)cc3)cc2[C@H](Nc2ccc(Cl)cc2)C[C@@H]1C`
Result: > 500 nM

Ask: Output measured EC50 for this item: `COc1ccc2c(c1)C(c1ccc(Cl)cc1)=N[C@H](CC(=O)Nc1ccc(OCCOCCOCCOCCOCCOCCC(=O)NCCCN(C)CCCNC(=O)CCNC(=O)c3nc(NC(=O)CCNC(=O)c4cc(NC(=O)c5nc(NC(=O)CCNC(=O)c6cc(NC(=O)c7nccn7C)cn6C)cn5C)cn4C)cn3C)cc1)c1nnc(C)n1-2`
Result: > 500 nM

Ask: Output measured EC50 for this item: `Cc1sc2c(c1C)C(c1ccc(Cl)cc1)=N[C@@H](CC(=O)Nc1ccc(OCCOCCOCCOCCOCCOCCOCCC(=O)NCCCN(C)CCCNC(=O)c3cc(NC(=O)c4nc(NC(=O)CCNC(=O)c5cc(NC(=O)c6nc(NC(=O)CCNC(=O)c7cc(NC(=O)c8nccn8C)cn7C)cn6C)cn5C)cn4C)cn3C)cc1)c1nnc(C)n1-2`
Result: 100 to 500 nM

====

- System: human FXN
- protocol_description: FXN mRNA expression by qRT-PCR in GM15850 cells after 48 hr compound treatment
- Type: cell-based
- test_settings: Homo sapiens; GM15850 cells, 48 hr incubation, hFXN normalized to hGAPDH; read-out: EC50 WT (nM, 48 hr)
property_measured: EC50

Consider the reported EC50 for these compounds:
smiles_entry=CC(=O)N1c2ccc(-c3ccc(C(=O)NCCOCCOCCOCCOCCOCCOCCOCCOCCNC(=O)c4nc(NC(=O)CCNC(=O)c5cc(NC(=O)c6nc(NC(=O)CCNC(=O)c7cc(NC(=O)c8nc(NC(=O)CCNC(=N)N)cn8C)cn7C)cn6C)cn5C)cn4C)cc3)cc2[C@H](Nc2ccc(Cl)cc2)C[C@@H]1C test_value="> 500 nM"
smiles_entry=Cc1cc(-c2nc3cnc(C4CCN(C(=O)COCCOCCOCCOCCOCCC(=O)NCCCN(C)CCCNC(=O)CCNC(=O)c5nc(NC(=O)CCNC(=O)c6cc(NC(=O)c7nc(NC(=O)CCNC(=O)c8cc(NC(=O)c9nccn9C)cn8C)cn7C)cn6C)cn5C)CC4)cc3n2[C@@H](C)c2ccccc2)nn(C)c1=O test_value="< 100 nM"

Kindly consider the entry below.
Ask: Output measured EC50 for this item: `Cc1sc2c(c1C)C(c1ccc(Cl)cc1)=N[C@@H](CC(=O)Nc1ccc(OCCOCCOCCOCC(=O)N3CCN(CCOCCOCCOCCNC(=O)CCNC(=O)c4nc(NC(=O)CCNC(=O)c5cc(NC(=O)c6nc(NC(=O)CCNC(=O)c7cc(NC(=O)c8nccn8C)cn7C)cn6C)cn5C)cn4C)CC3)cc1)c1nnc(C)n1-2`
Result: < 100 nM

====

The compounds listed here are annotated with their EC50.
- System: human FXN
- protocol_description: FXN mRNA expression by qRT-PCR in GM15850 cells after 48 hr compound treatment
- Assay type: cell-based
- test_settings: Homo sapiens; GM15850 cells, 48 hr incubation, hFXN normalized to hGAPDH; read-out: EC50 WT (nM, 48 hr)

compound="CCCNC(=O)CCNC(=O)c1nc(NC(=O)CCNC(=O)c2cc(NC(=O)c3nc(NC(=O)CCNC(=O)c4cc(NC(=O)c5nc(NC(=O)COCCOCCOCCOCCOCCOCCOCCOc6ccc(NC(=O)C[C@@H]7N=C(c8ccc(Cl)cc8)c8c(sc(C)c8C)-n8c(C)nnc87)cc6)cn5C)cn4C)cn3C)cn2C)cn1C [Compound 49]" system_tested="human FXN" test_value="< 100 nM"
compound="Cc1sc2c(c1C)C(c1ccc(Cl)cc1)=N[C@@H](CC(=O)Nc1ccc(OCCOCCOCCOCCOCCOCCOCCOCCOCCOCCNC(=O)CCNC(=O)c3nc(NC(=O)CCNC(=O)c4cc(NC(=O)c5nc(NC(=O)CCNC(=O)c6cc(NC(=O)c7nccn7C)cn6C)cn5C)cn4C)cn3C)cc1)c1nnc(C)n1-2 [Compound 24]" system_tested="human FXN" test_value="< 100 nM"

Kindly consider the entry below.
Ask: Output measured EC50 for this item: Cc1cc(-c2nc3cnc(C4CCN(CCOCCOCCOCCOCCOCCC(=O)NCCCN(C)CCCNC(=O)CCNC(=O)c5nc(NC(=O)CCNC(=O)c6cc(NC(=O)c7nc(NC(=O)CCNC(=O)c8cc(NC(=O)c9nccn9C)cn8C)cn7C)cn6C)cn5C)CC4)cc3n2[C@@H](C)c2ccccc2)nn(C)c1=O [Compound 9]
Result: 100 to 500 nM

Values from patent US20240050576A1
